Item-by-item account of GI50
Tested on: HL-60
assayProtocol: NCI tumour cell line growth inhibition, 48 h
Calls of active or inactive are those of the source. No stated cut-off is given here; in the data, active = GI50 up to about 1.1 µM and inactive = higher.

Illustrative cases are given below, each with its answer.
[[record]]
compound = "CCCCN(CCCC)CC(C(=O)Nc1ccc([N+](=O)[O-])cc1[N+](=O)[O-])/C(C)=N\\NC(=O)c1ccncc1 (centres undefined)"
obsvalue = "> 100 µM (inactive)"

[[record]]
compound = "CN1CCC(CNC(=O)CCCCCCCCC(=O)NCC2(c3ccccc3)CCN(C)CC2)(c2ccccc2)CC1"
obsvalue = "> 100 µM (inactive)"


GI50 in this record for Cn1c(=O)c2/c(n(C)c1=O)=N\C=c1\c(=O)n(C)c(=O)n(C)\c1=N\C=2 : > 100 µM (inactive)

GI50 in this record for C[C@@]12C(=O)OC(=O)[C@]1(C)[C@H]1CC[C@@H]2O1 : 1.63 µM (inactive)

GI50 in this record for CCOP(C)(=O)C(Nc1ccc(F)cc1)c1ccc(F)cc1 (centres undefined) : > 100 µM (inactive)

GI50 in this record for C[C@H](CCC(=O)O)[C@H]1CC[C@H]2[C@@H]3[C@@H](O)C[C@@H]4C[C@H](O)CC[C@]4(C)[C@H]3C[C@H](O)[C@]12C : > 100 µM (inactive)

GI50 in this record for CCOC(=O)C1CCCc2sc(N)c(C#N)c21 (centres undefined) : > 100 µM (inactive)

GI50 in this record for O=C(c1ccccc1)C(c1ccccc1)C1(O)C(=O)Nc2ccc([N+](=O)[O-])cc21 (centres undefined) : 42.9 µM (inactive)

GI50 in this record for O=C(O)C1CSC2(CCCN(Cc3ccccc3)C2)N1 (centres undefined) : > 100 µM (inactive)

---

Tested on: Hs-578T
assayProtocol: NCI tumour cell line growth inhibition, 48 h
Active and inactive are the calls of the source. No stated cut-off is given here; in the data, active = GI50 up to about 1.1 µM and inactive = higher.
Hi! Could you answer with just one of these? TRUE for active, FALSE for inactive

Field: outcome | Entry: COc1ccc(C2(C3c4cc(OC)c(OC)cc4CCN3C)SCCCS2)cc1O (stereo not given)
FALSE

Field: outcome | Entry: COc1ccc2c(=O)c(-c3cc4c(cc3OC)OCO4)coc2c1
FALSE

Field: outcome | Entry: C[C@@H](NC(=O)[C@@H]1C[C@]1(C)CO)c1cccc2ccccc12
FALSE

Field: outcome | Entry: Fc1cc(-c2cc(-c3ccccc3)no2)c(Cl)cc1Cl
FALSE

Field: outcome | Entry: O=[N+]([O-])c1ccc2c(c1)=[N+]([O-])C1(CCCCC1)[N+]=2[O-]
FALSE

Field: outcome | Entry: C/C(=N\Nc1ccc2ccccc2n1)c1ccccc1O
FALSE

Field: outcome | Entry: Cc1ccccc1/N=C/N(C)C
FALSE

Field: outcome | Entry: CN(C)c1nc(NN)c2c(-c3ccccc3)c(-c3ccccc3)oc2n1
FALSE

Field: outcome | Entry: O=C1CC(c2ccccc2Cl)C2(C(=O)NC(=S)NC2=O)C(c2ccccc2Cl)C1 (stereo not given)
TRUE

Field: outcome | Entry: Cc1cc2c(c3oc(C4(C)OC4C4OC4C)cc(=O)c13)C(=O)c1c(O)c(C3CC(C)(N(C)C)C(O)C(C)O3)cc(C3CC(N(C)C)C(O)C(C)O3)c1C2=O (stereo not given)
TRUE

---

Item-by-item account of GI50
Tested on: UACC-257
assayProtocol: NCI tumour cell line growth inhibition, 48 h
Calls of active or inactive are those of the source. Rule as the data show it: active = GI50 up to about 1.1 µM and inactive = higher.

[[record]]
molecule = "C[C@]12CCc3nonc3C1CC[C@@H]1C2CC[C@]2(C)C(=O)CCC12 (stereo partly drawn)"
targetofassay = "UACC-257"
experimentalendpoint = "GI50"
obsvalue = "> 10 µM (inactive)"

[[record]]
molecule = "[N-]=[N+]=N/C1=C/CCCCC(=O)C1"
targetofassay = "UACC-257"
experimentalendpoint = "GI50"
obsvalue = "> 100 µM (inactive)"


GI50 in this record for COc1ccc(CNc2nc3c(NC(C)=O)cc(C(F)(F)F)cc3nc2-c2ccccc2)cc1OC : > 100 µM (inactive)

GI50 in this record for COc1ccc(Cc2nc3cc(C(F)(F)F)ccc3n2CCCN(C)C)cc1 : 17.1 µM (inactive)

GI50 in this record for Cc1ccc(S(=O)OC2C3CC4CC(C3)CC2C4)cc1 (stereo not drawn) : > 100 µM (inactive)

GI50 in this record for O=C1OC(CC(=O)c2ccc(F)cc2)C(Cl)=C1Cl (stereo not drawn) : 16.9 µM (inactive)

GI50 in this record for C[n+]1c2n(c3nc(N)[nH]c(=O)c31)C1OC(C2)C(O)C1O (stereo not drawn) : > 100 µM (inactive)

GI50 in this record for C/C(=N\NC(=O)C[N+](C)(C)C)c1sc(-c2cccnc2)nc1C : > 100 µM (inactive)

GI50 in this record for Cc1ccc([N+](=O)[O-])cc1NC(=O)C(=O)Cc1nc2ccc(C(=O)c3ccccc3)cc2nc1O : > 100 µM (inactive)

GI50 in this record for [O-]/[N+](=C\c1ccccc1OC(=S)S)c1ccc(Cl)cc1 : 21.5 µM (inactive)

GI50 in this record for Cc1cc(C#N)c(Nc2ccc(F)cc2[N+](=O)[O-])s1 : > 100 µM (inactive)

GI50 in this record for Cc1cccc2nc(-c3ccccc3)cc(=O)n12 : 91.8 µM (inactive)

GI50 in this record for Fc1cccc(Cl)c1C1SCc2nc3ccccc3n21 (stereo not drawn) : 21.9 µM (inactive)

---

Item-by-item account of GI50
Test system: NCI-H460
assayProtocol: NCI tumour cell line growth inhibition, 48 h
The source made the active and inactive calls. Cut-off read from the data, not from the text of the source: active = GI50 up to about 1.1 µM and inactive = higher. Residues, ends and D or L forms follow the SMILES beside them. *: point of attachment. Fmoc = O=C(OCC1c2ccccc2-c2ccccc21)*; Boc = CC(C)(C)OC(=O)*

Illustrative cases are given below, each with its answer.
[[record]]
molecule = "COc1ccc(-c2sc(Br)c3c2C(=O)C2OC(=O)NC32)cc1OC (stereo not drawn)"
targetofassay = "NCI-H460"
obsvalue = "> 100 µM (inactive)"

[[record]]
molecule = "Cc1cc(C)c2c(=O)n(CC(O)CN3CCN(c4ncccn4)CC3)sc2n1 (stereo not drawn)"
targetofassay = "NCI-H460"
obsvalue = "17.5 µM (inactive)"

[[record]]
molecule = "Nc1ncnc2c1ncn2[C@@H]1C[C@H]1CO"
targetofassay = "NCI-H460"
obsvalue = "> 100 µM (inactive)"

[[record]]
molecule = "O=C(NNC(=S)Nc1ccc(Cl)cc1)c1cc(-c2ccccc2)nc2ccccc12"
targetofassay = "NCI-H460"
obsvalue = "6.22 µM (inactive)"

[[record]]
molecule = "CC(C)(C)OC(=O)NCCCCC(NC(=O)C(Cc1c[nH]c2ccccc12)NC(=O)OCC1c2ccccc2-c2ccccc21)C(=O)N1CCCC1C(=O)NCC(N)=O (stereo not drawn) (Fmoc-WK(Boc)PG-NH2; configuration not given here)"
targetofassay = "NCI-H460"
obsvalue = "> 100 µM (inactive)"

[[record]]
molecule = "O=C(O)CCc1nc2c(n1Cc1ccccc1)C(=O)c1ccccc1C2=O"
targetofassay = "NCI-H460"
obsvalue = "37.9 µM (inactive)"


Record for CN1CCC(CNC(=O)CCCCCCCCC(=O)NCC2(c3ccccc3)CCN(C)CC2)(c2ccccc2)CC1 under target or system NCI-H460: GI50 reported as > 100 µM (inactive)

Record for COc1cccc2c1C(=O)c1c(O)c3c(c(O)c1C2=O)C[C@](O)(C(=O)CO)CC3OC1CC(N)C(OC2CCCCO2)C(C)O1 (stereo partly drawn) under target or system NCI-H460: GI50 reported as < 0.01 µM (active)

---

System: HOP-62
assayProtocol: NCI tumour cell line growth inhibition, 48 h
The source made the active and inactive calls. Rule as the data show it: active = GI50 up to about 1.1 µM and inactive = higher. Residues, ends and D or L forms follow the SMILES beside them. *: point of attachment. Fmoc = O=C(OCC1c2ccccc2-c2ccccc21)*; Boc = CC(C)(C)OC(=O)*
experimentalEndpoint: GI50

[[record]]
molecule = "C1CCSCCCCSCCCCSCCCCSC1"
experimentalendpoint = "GI50"
obsvalue = "> 100 µM (inactive)"

[[record]]
molecule = "O=C(O)c1cc2ccccc2c(/N=N/c2ccc(S(=O)(=O)Nc3ncccn3)cc2)c1O"
experimentalendpoint = "GI50"
obsvalue = "> 100 µM (inactive)"

[[record]]
molecule = "COc1ccc2c(c1)/C(=C\\c1c(Cl)nc3n1CCS3)C(=O)N2"
experimentalendpoint = "GI50"
obsvalue = "6.35 µM (inactive)"

[[record]]
molecule = "CC(C)=C/C=C1/CS(=O)(=O)C=C1C"
experimentalendpoint = "GI50"
obsvalue = "> 100 µM (inactive)"

[[record]]
molecule = "O=c1/c(=C/c2ccc(-c3ccc(Cl)cc3Cl)o2)sc2n1[C@@H](c1ccc3c(c1)OCO3)C=C(c1cc(F)c(Cl)cc1Cl)N=2"
experimentalendpoint = "GI50"
obsvalue = "5.87 µM (inactive)"


GI50 in this record for NC(=S)N/N=C1\CCCCC1C(O)(C(F)(F)Cl)C(F)(F)Cl (stereo not given) : > 10 µM (inactive)

GI50 in this record for CC(C)(C)OC(=O)NCCCCC(NC(=O)C(Cc1c[nH]c2ccccc12)NC(=O)OCC1c2ccccc2-c2ccccc21)C(=O)N1CCCC1C(=O)NCC(N)=O (stereo not given) (Fmoc-WK(Boc)PG-NH2; configuration not given here) : > 100 µM (inactive)

GI50 in this record for C=C1CC[C@@H]2[C@](C)(COC(=O)CCC(=O)O)CCC[C@@]2(C)[C@@H]1CCC1=CC(=O)OC1 : > 100 µM (inactive)

GI50 in this record for Fc1cc(-c2cc(-c3ccccc3)no2)c(Cl)cc1Cl : 22.7 µM (inactive)

GI50 in this record for C[C@]12CCc3nonc3C1CC[C@@H]1C2CC[C@]2(C)C(=O)CCC12 (stereo not given in full) : > 100 µM (inactive)

GI50 in this record for COc1ccc(/C=C\c2cc(OC)c(OC)c(OC)c2)c(O)c1O [COMBRETASTATIN A-1] : 0.0893 µM (active)

GI50 in this record for O=c1c2ncn(C3CCCO3)c2n(-c2ccccc2)c(=S)n1-c1ccccc1 (stereo not given) : > 100 µM (inactive)
